System: release of LH
procedureSummary: Release of LH in rats after sc injection
Type: in vivo
studyConditions: release 60 min. after sc injection, dosage of peptide 300 ng
Non-standard residues stand in square brackets, D forms with d. Residues, ends and D or L forms follow the SMILES beside them. pGlu = O=C1CC[C@@H](C(=O)O)N1
Entries annotated with measured LH
Express the result in ng/mL but write the number alone.

Examples with answers:
In one line, give reported LH of the entry N=C(N)NCCC[C@H](NC(=O)[C@H](Cc1c[nH]c2ccccc12)NC(=O)CNC(=O)[C@H](Cc1ccc(O)cc1)NC(=O)[C@H](CO)NC(=O)[C@H](Cc1c[nH]c2ccccc12)NC(=O)[C@H](Cc1c[nH]cn1)NC(=O)[C@@H]1CCC(=O)N1)C(=O)N1CCC[C@H]1C(=O)NCC(N)=O [[Trp^7]--LHRH] .
14.5

In one line, give reported LH of the entry CC(C)C[C@H](NC(=O)CNC(=O)[C@H](Cc1c[nH]cn1)NC(=O)[C@H](CO)NC(=O)[C@H](Cc1c[nH]c2ccccc12)NC(=O)[C@H](Cc1c[nH]cn1)NC(=O)[C@@H]1CCC(=O)N1)C(=O)N[C@@H](CCCNC(=N)N)C(=O)N1CCC[C@H]1C(=O)NCC(N)=O [[His^5]--LHRH] .
14

In one line, give reported LH of the entry NC(=O)CNC(=O)[C@@H]1CCCN1C(=O)[C@H](Cc1ccc(O)cc1)NC(=O)[C@H](Cc1c[nH]c2ccccc12)NC(=O)CNC(=O)[C@H](Cc1c[nH]cn1)NC(=O)[C@H](CO)NC(=O)[C@H](Cc1c[nH]c2ccccc12)NC(=O)[C@H](Cc1c[nH]cn1)NC(=O)[C@@H]1CCC(=O)N1 [[His^5 Trp^7 Tyr^8] (Chicken II), reference compound] ([pGlu]HWSHGWYPG-NH2) .
3.5

Next:
In one line, give reported LH of the entry CC(C)C[C@H](NC(=O)[C@H](Cc1c[nH]c2ccccc12)NC(=O)CNC(=O)[C@H](Cc1c[nH]cn1)NC(=O)[C@H](CO)NC(=O)[C@H](Cc1c[nH]c2ccccc12)NC(=O)[C@H](Cc1c[nH]cn1)NC(=O)[C@@H]1CCC(=O)N1)C(=O)N1CCC[C@H]1C(=O)NCC(N)=O [[His^5 Trp^7 Leu^8]--LHRH] ([pGlu]HWSHGWLPG-NH2) .
2.5

In one line, give reported LH of the entry CC(C)C[C@H](NC(=O)CNC(=O)[C@H](Cc1c[nH]cn1)NC(=O)[C@H](CO)NC(=O)[C@H](Cc1c[nH]c2ccccc12)NC(=O)[C@H](Cc1c[nH]cn1)NC(=O)[C@@H]1CCC(=O)N1)C(=O)N[C@@H](CC(C)C)C(=O)N1CCC[C@H]1C(=O)NCC(N)=O [[His^5 Leu^8]--LHRH] ([pGlu]HWSHGLLPG-NH2) .
2.2
